Reference source for all entries: patent US20020049223A1

Consider the following compounds; for each one, report its melting point.

Sample answers from the record:
- COc1c(-c2cc3c(s2)CCCC3=O)ccc2c(=O)c(C(=O)O)cn(C3CC3)c12 [Example 50]: 266 to 267 °C
- COc1c(-c2cc3c(s2)C(O)CCC3)ccc2c(=O)c(C(=O)O)cn(C3CC3)c12 (centres unmarked) [Example 41]: 238 to 240 °C
- Br.CC1(C)CNCc2cc(-c3ccc4c(=O)c(C(=O)O)cn(C5CC5)c4c3)sc21: > 300 °C (dec.)
- COc1c(-c2cc3c(s2)CNCC3C)ccc2c(=O)c(C(=O)O)cn(C3CC3)c12.Cl (centres unmarked): 254 to 259 °C
- Br.CC1(C)CNCc2cc(-c3ccc4c(=O)c(C(=O)O)cn(C5CC5)c4n3)sc21: > 300 °C (dec.)
- Br.CC1(C)CNCc2cc(-c3nc4c(cc3F)c(=O)c(C(=O)O)cn4C3CC3)sc21: 258 to 262 °C (dec.)

Provide melting point values for the following items, in order.
1. COc1c(-c2cc3c(s2)CCCC3N)ccc2c(=O)c(C(=O)O)cn(C3CC3)c12.Cl (centres unmarked) [Example 40]
2. Cl.O=C(O)c1cn(C2CC2)c2nc(-c3cc4c(s3)CNCC4)c(F)cc2c1=O [Example 9]
3. COc1c(-c2cc3c(s2)CCC(C)(C)/C3=N\O)ccc2c(=O)c(C(=O)O)cn(C3CC3)c12 [Example 233]
4. CC1NCCc2cc(-c3nc4c(cc3F)c(=O)c(C(=O)O)cn4C3CC3)sc21.Cl (centres unmarked) [Example 22]
5. COc1c(-c2cc3c(s2)CCC(O)C3)ccc2c(=O)c(C(=O)O)cn(C3CC3)c12 (centres unmarked) [Example 42]
6. Cl.O=C(O)c1cn(C2CC2)c2nc(-c3cc4c(s3)CNCC4)ccc2c1=O

1: 219 to 222 °C; 2: 290 to 291 °C; 3: 135 to 138 °C; 4: 293 to 294 °C; 5: 232 to 233 °C; 6: 298 to 300 °C

Provide melting point values for the following items, in order.
1. COc1c(-c2cc3c(s2)CNCC3)ccc2c(=O)c(C(=O)O)cn(C3CC3)c12.Cl [Example 7]
2. COc1c(-c2cc3c(s2)CCC(CO)=C3)ccc2c(=O)c(C(=O)O)cn(C3CC3)c12 [Example 44]
3. Br.CC1NCCc2sc(-c3ccc4c(=O)c(C(=O)O)cn(C5CC5)c4c3OC(F)F)cc21 (centres unmarked) [Example 20]
4. COc1c(-c2cc3c(s2)C(N)CCC3)c(F)cc2c(=O)c(C(=O)O)cn(C3CC3)c12.Cl (centres unmarked) [Example 228]
5. Br.COc1c(-c2cc3c(s2)C(C)(C)CNC3)ccc2c(=O)c(C(=O)O)cn(C3CC3)c12

1. 188 to 189 °C
2. 205 to 206 °C
3. 176 to 180 °C (dec.)
4. 148 to 153 °C (dec.)
5. 212 to 217 °C (dec.)

====

# Test system: Escherichia coli JUHL
# assay.remarks: Assay B: in vitro antibacterial activity, broth microdilution MIC (NCCLS)
# Assay type: cell-based
# particulars: Table 2, Assay B, cation-adjusted Mueller Hinton broth, 35° C., 16 to 20 hr; code D = Escherichia coli JUHL; unit assumed
# Procedure: Assay B. Determination of Biological Activity In Vitro Assay of Antibacterial Activity Representative compounds of the invention were assayed in vitro for antibacterial activity. […] Minimum Inhibitory Concentrations (MICs) were determined as the lowest drug concentration completely inhibiting growth. […]
Consider the following compounds; for each one, report its Antibacterial Activity (MIC's), D.
Answers are plain numbers, in µg/mL.

- COc1c(-c2cc3c(s2)CCCC3N(C)C)ccc2c(=O)c(C(=O)O)cn(C3CC3)c12.Cl (stereo not shown): 0.5
- COc1c(-c2cc3c(s2)CCCC3NCc2cccnc2)ccc2c(=O)c(C(=O)O)cn(C3CC3)c12.Cl.Cl (stereo not shown): 1
- Cl.NC1CCCc2cc(-c3ccc4c(=O)c(C(=O)O)cn(C5CC5)c4c3)sc21 (stereo not shown): 0.03

Quick one: Antibacterial Activity (MIC's), D for "COc1c(-c2cc3c(s2)CC(=O)C3)ccc2c(=O)c(C(=O)O)cn(C3CC3)c12" ?
4

====

Consider the following compounds; for each one, report its melting point.
Counter-ions that a name gives are not always drawn.

Sample answers from the record:
- COc1c(-c2cc3c(s2)CCCC3O)ccc2c(=O)c(C(=O)O)cn(C3CC3)c12 (stereo not shown) [Example 38]: 237 to 239 °C
- COc1c(-c2cc3c(s2)CCC/C3=N\OCc2ccccn2)ccc2c(=O)c(C(=O)O)cn(C3CC3)c12 (as salt: hydrochloride) [Example 183]: 178 to 179 °C
- CC1CNCc2sc(-c3ccc4c(=O)c(C(=O)O)cn(C5CC5)c4c3)cc21.Cl (stereo not shown): 295 to 298 °C
- CC1NCCc2cc(-c3ccc4c(=O)c(C(=O)O)cn(C5CC5)c4n3)sc21.Cl (stereo not shown): 310 to 312 °C
- COc1c(-c2cc3c(s2)C(N)CCC3)ccc2c(=O)c(C(=O)O)cn(C3CC3)c12.Cl (stereo not shown) [Example 201]: 174 to 178 °C

Provide melting point values for the following items, in order.
1. COc1c(-c2cc3c(s2)CCC(C)(C)C3O)ccc2c(=O)c(C(=O)O)cn(C3CC3)c12 (stereo not shown) [Example 213]
2. Br.COc1c(-c2cc3c(s2)CCNC3C)ccc2c(=O)c(C(=O)O)cn(C3CC3)c12 (stereo not shown)
3. COc1c(-c2cc3c(s2)CCC/C3=N\OCc2cccnc2)ccc2c(=O)c(C(=O)O)cn(C3CC3)c12 (as salt: hydrochloride) [Example 182]
4. CC1CNCc2sc(-c3nc4c(cc3F)c(=O)c(C(=O)O)cn4C3CC3)cc21.Cl (stereo not shown)

1. 93 to 94 °C
2. 202 to 205 °C (dec.)
3. 181 to 183 °C
4. 288 to 290 °C

Quick one: melting point for COc1c(-c2cc3c(s2)CCNC3)ccc2c(=O)c(C(=O)O)cn(C3CC3)c12.Cl [Example 2] ?
180 °C (dec.)

====

# Tested on: Escherichia coli JUHL
# assay.remarks: Assay B: in vitro antibacterial activity, broth microdilution MIC (NCCLS)
# Assay type: cell-based
# particulars: Table 2, Assay B, cation-adjusted Mueller Hinton broth, 35° C., 16 to 20 hr; code D = Escherichia coli JUHL; unit assumed
Just so you know, the groups by Antibacterial Activity (MIC's), D go like this: range A: < 0.1 µg/mL; range B: ≥ 0.1 µg/mL and < 2 µg/mL; range C: ≥ 2 µg/mL

Below, 10 compounds whose answers are already recorded.
- CNC(=S)NN=C1CCCc2sc(-c3ccc4c(=O)c(C(=O)O)cn(C5CC5)c4c3OC)cc21: range B
- COc1c(-c2cc3c(s2)CCCC3=NNC2=NCCN2)ccc2c(=O)c(C(=O)O)cn(C3CC3)c12: range B
- CNC1CCc2sc(-c3ccc4c(=O)c(C(=O)O)cn(C5CC5)c4c3OC)cc2C1.Cl (stereo not drawn): range B
- COc1c(-c2cc3c(s2)CC(N)CC3)ccc2c(=O)c(C(=O)O)cn(C3CC3)c12.O=C(O)C(F)(F)F (stereo not drawn): range A
- COc1c(-c2cc3c(s2)S(=O)(=O)N(C)CC3N)ccc2c(=O)c(C(=O)O)cn(C3CC3)c12.Cl (stereo not drawn): range C
- COc1c(-c2cc3c(s2)C(N)CC(C)(C)C3)ccc2c(=O)c(C(=O)O)cn(C3CC3)c12.Cl (stereo not drawn): range B
- COc1c(-c2cc3c(s2)CCCC3=NOCc2ccncc2)ccc2c(=O)c(C(=O)O)cn(C3CC3)c12: range B
- COc1c(-c2cc3c(s2)CCCC3=NN2CCCC2)ccc2c(=O)c(C(=O)O)cn(C3CC3)c12: range B
- COc1c(-c2cc3c(s2)CC(=NOCc2ccccc2)C3)ccc2c(=O)c(C(=O)O)cn(C3CC3)c12: range C
- O=C(O)c1cn(C2CC2)c2c(F)c(-c3cc4c(s3)CCCC4O)c(F)cc2c1=O (stereo not drawn): range A

Into which bin does this compound go? Nc1cc(-c2cc3c(s2)C(N)CCC3)c(F)c2c1c(=O)c(C(=O)O)cn2C1CC1.O=C(O)C(F)(F)F (stereo not drawn)
range A

Into which bin does this compound go? COc1c(-c2cc3c(s2)C(N)CCC3)c(F)cc2c(=O)c(C(=O)O)cn(C3CC3)c12.Cl (stereo not drawn)
range A

Into which bin does this compound go? COc1c(-c2cc3c(s2)S(=O)(=O)N(C)CC3O)ccc2c(=O)c(C(=O)O)cn(C3CC3)c12 (stereo not drawn)
range C
